Values compiled from PubChem BioAssay.

- test.system: NADPH oxidase 2 (Homo sapiens)
- assay.summary: compounds shifting NOX2 Amplex Red fluorescence – cell-based, HEK293-NOX2, PMA-stimulated, NOX inhibitor project, primary screen (AID 1159); also: test concentration not given here
- condition.details: 45 min, higher = more signal, called active from +8 up or from −8 down
Tag: MET if measured z-score is not below -0.8, NOT MET if it is.

[[record]]
molecule = "CN(C)C(=O)[C@@]1(CCS(=O)(=O)c2ccccc2)N=C(c2ccc(OCCCO)cc2)O[C@H]1c1ccccc1CN=[N+]=[N-]"
category_label = "NOT MET"

[[record]]
molecule = "C[C@]12C(=O)N(CCCCCO)[C@@H]3C(=O)N(c4ccc(Cl)cc4)CC=CC31O[C@@H]1/C=C\\CCCOC(=O)C12 (stereo partly drawn)"
category_label = "MET"

[[record]]
molecule = "CCCNC(=O)[C@@H]1c2ccccc2C(=O)N(CC23CC4CC(CC(C4)C2)C3)[C@H]1c1ccc(CO)cc1"
category_label = "MET"

[[record]]
molecule = "COCCCNC(=O)[C@]1(Cc2ccccc2CN=[N+]=[N-])N=C(c2ccc(OCCCO)cc2)O[C@@H]1c1ccccc1CN=[N+]=[N-]"
category_label = "NOT MET"

[[record]]
molecule = "COCCOC(=O)N1C(=O)[C@@]2(c3cc(C#CC4(O)CCCCCC4)ccc31)[C@H](C(=O)NC[C@H](O)c1ccccc1)[C@H]1C(=O)O[C@H](c3ccccc3)[C@H](c3ccccc3)N1[C@@H]2c1ccc(OCCO)cc1"
category_label = "MET"

[[record]]
molecule = "C=CCNC(=O)[C@H]1[C@@H]2C(=O)O[C@@H](c3ccccc3)[C@@H](c3ccccc3)N2[C@@H](c2ccc(OCCO)cc2)[C@]12C(=O)N(C(=O)OCCOC)c1ccc(C#CC3=CCCCC3)cc12"
category_label = "MET"

[[record]]
molecule = "O=C1O[C@H](c2ccccc2)[C@H](c2ccccc2)N2[C@H]1[C@@H](C(=O)N1CCCCCCC1)[C@]1(C(=O)Nc3ccc(C#CCCO)cc31)[C@H]2c1ccc(OCCO)cc1"
category_label = "MET"

[[record]]
molecule = "O=C1C2C=CC(C(O)c3cccc4ccccc34)N(Nc3ccccc3)C2C(=O)N1c1ccccc1 (stereo not drawn)"
category_label = "MET"

[[record]]
molecule = "CCC[C@@H]1C[C@@]1(CCC)[C@@H](NC(=O)c1ccco1)c1ccc(Cl)cc1"
category_label = "NOT MET"

[[record]]
molecule = "COC(=O)[C@]1(Cc2ccccc2N=[N+]=[N-])N=C(c2ccc(OCCCO)cc2)O[C@@H]1c1ccccc1"
category_label = "NOT MET"

[[record]]
molecule = "C=C(CCCC)/C(=C/C[C@@H](OC(=O)c1ccncc1)c1ccccc1OCCO)c1cc(C(=O)OC)ccc1OC"
category_label = "MET"

[[record]]
molecule = "C=CCC(OC(C)=O)[C@@H]1[C@@H](N(Cc2cccc3ccccc23)C(=O)Cc2ccc(F)cc2)c2cc(OCCCO)ccc2N1C(=O)Cc1ccc(OC)cc1 (stereo partly drawn)"
category_label = "NOT MET"

[[record]]
molecule = "CCOC(=O)C[C@H]1[C@H](OC(=O)Cc2ccc3c(c2)OCO3)[C@@H](NC(=O)c2ccccc2)c2cc(OCCCO)ccc2N1C(=O)c1ccccc1"
category_label = "MET"

[[record]]
molecule = "CCOC(=O)C1=CC[C@@H](c2cccc(Br)c2)N(S(=O)(=O)c2ccc(C)cc2)[C@H]1c1ccc([N+](=O)[O-])cc1"
category_label = "MET"

[[record]]
molecule = "COCCOC(=O)N1C(=O)[C@@]2(c3cc(C#CCC(C(=O)OC)C(=O)OC)ccc31)[C@H](C(=O)N1CCCCCCC1)[C@H]1C(=O)O[C@H](c3ccccc3)[C@H](c3ccccc3)N1[C@@H]2c1ccc(O)cc1"
category_label = "MET"

[[record]]
molecule = "CCN(CC)c1ccc(N2CC=CC34O[C@@H]5/C=C\\CCCOC(=O)C5[C@H]3C(=O)N(CCCCCCO)[C@@H]4C2=O)cc1 (stereo partly drawn)"
category_label = "MET"

[[record]]
molecule = "COCCCNC(=O)[C@@]1(C)c2ccccc2C(=O)N(c2ccc(C)cn2)[C@H]1c1ccc(CO)cc1"
category_label = "NOT MET"

[[record]]
molecule = "CC(C)N1CC=CC23O[C@@H]4C=CCOC(=O)[C@@H]4[C@H]2C(=O)N(CCCCCCO)[C@@H]3C1=O (stereo partly drawn)"
category_label = "MET"

[[record]]
molecule = "COC(=O)C(CC#Cc1ccc2c(c1)[C@]1(C(=O)N2)[C@H](c2ccc(O)cc2)N2[C@H](c3ccccc3)[C@H](c3ccccc3)OC(=O)[C@H]2[C@@H]1C(=O)O)C(=O)OC"
category_label = "MET"

[[record]]
molecule = "CCCC=C(CCC)[C@@H](NC(=O)Cc1ccccc1)c1ccc(C(=O)OC)cc1"
category_label = "MET"

[[record]]
molecule = "CC1CC/C=C\\[C@H]2OC34C=CCN(c5ccc(Cl)cc5)C(=O)[C@H]3N(C(CO)C(C)C)C(=O)[C@]4(C)C2C(=O)O1 (stereo partly drawn)"
category_label = "MET"

[[record]]
molecule = "CC(C)CNC(=O)[C@@]1(C)c2ccccc2C(=O)N(Cc2ccccc2)[C@H]1c1ccc(CO)cc1"
category_label = "NOT MET"

[[record]]
molecule = "[N-]=[N+]=NCc1ccccc1[C@H]1OC(c2ccc(OCCCO)cc2)=N[C@@]1(Cc1ccccc1)C(N)=O"
category_label = "MET"

[[record]]
molecule = "COC(=O)c1ccc(OC)c(/C=C\\CC(CCc2ccccc2)OC(=O)c2ccncc2)c1 (stereo not drawn)"
category_label = "MET"

[[record]]
molecule = "CC(C)CCC[C@@H](C)[C@H]1CC[C@@]2(C)C3=C(CC[C@]12C)[C@@]1(C)CC[C@H](OC(=O)c2ccc(N)cc2)C(C)(C)C1CC3 (stereo partly drawn)"
category_label = "MET"

[[record]]
molecule = "C=CC[C@]1(C(=O)N(C)C)N=C(c2ccc(OCCCO)cc2)O[C@H]1c1ccccc1"
category_label = "NOT MET"

